switch fluorescence ratio reference
- Test system: ATP;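 note: ATP exposure 15 min at 22 °C before imaging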
- assay_name: switch fluorescence ratio, 500 uM ATP over buffer (Cy3 cluster intensity, sum of 5 cycles each) (fold (ratio)); higher = stronger signal-on switching upon ATP binding; sequences stand for … in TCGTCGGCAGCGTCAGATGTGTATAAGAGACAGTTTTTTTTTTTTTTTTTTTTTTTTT…TC
- reported_conditions: aptamer strand: ATP DNA aptamer (quencher-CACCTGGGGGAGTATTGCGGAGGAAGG + anchor), 100 nM annealed; ATP concentration: 500 uM
Provide a numeric answer; units are not to be included.

Study these solved cases before continuing.
INSERT INTO measurements (biopolymer_sequence, numeric_readout) VALUES
  ('TATATTTCGT', 1.03),
  ('ATTGTATAAG', 0.983),
  ('AGGATTGTGA', 1.02),
  ('ATTCTTTTGG', 0.973),
  ('ACATGGTTAG', 0.987),
  ('ATGCCCAGCT', 1.01);

[Q] What switch fluorescence ratio appears in the records for this sequence with ATP? GGTCTAGATT
[A] 0.988

[Q] What switch fluorescence ratio appears in the records for this sequence with ATP? TACCCGCGCG
[A] 1.03

[Q] # query: switch fluorescence ratio | item ACGGTATTG | system: ATP;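 note: ATP exposure 15 min at 22 °C before imaging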
[A] 1.19

[Q] Lab note: need switch fluorescence ratio for GGCGCTCACA on ATP, anyone have it?
[A] 1.04

[Q] # query: switch fluorescence ratio | item TGGGAGTAAA | system: ATP;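 note: ATP exposure 15 min at 22 °C before imaging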
[A] 1.02

====

- System: ATP;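 note: ATP exposure 15 min at 22 °C before imaging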
- assay_name: switch fluorescence ratio, 500 uM ATP over buffer (Cy3 cluster intensity, sum of 5 cycles each) (fold (ratio)); higher = stronger signal-on switching upon ATP binding; sequences stand for … in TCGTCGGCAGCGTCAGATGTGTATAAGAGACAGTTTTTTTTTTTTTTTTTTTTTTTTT…TC
- reported_conditions: aptamer strand: ATP DNA aptamer (quencher-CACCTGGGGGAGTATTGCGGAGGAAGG + anchor), 100 nM annealed; ATP concentration: 500 uM
Form field: switch fluorescence ratio (one value per entry).
Enter the number alone.

Worked cases, answers included:
INSERT INTO measurements (biopolymer_sequence, numeric_readout) VALUES
  ('ATCCTATTTG', 1.01),
  ('TGGGAGAGTA', 0.996),
  ('GGCAATAATA', 1.09),
  ('AAAAAAAGCT', 1.06),
  ('GAAGGGATTG', 1.02);

[Q] What value of switch fluorescence ratio has been recorded for this entry: GTTTTCCGGA
[A] 0.996

[Q] For the sequence ACGCATTACA , what switch fluorescence ratio is on record?
[A] 3.9

[Q] Form field: reported switch fluorescence ratio of TAGGATTGTG
[A] 0.999

[Q] Find the recorded switch fluorescence ratio belonging to CCTTTCATGC and report it.
[A] 1.65

[Q] Requested field: switch fluorescence ratio. Item: AGGGGCTTTG
[A] 1.03

====

switch fluorescence ratio values by entry
- Tested on: ATP;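 note: ATP exposure 15 min at 22 °C before imaging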
- assay_name: switch fluorescence ratio, 500 uM ATP over buffer (Cy3 cluster intensity, sum of 5 cycles each) (fold (ratio)); higher = stronger signal-on switching upon ATP binding; sequences stand for … in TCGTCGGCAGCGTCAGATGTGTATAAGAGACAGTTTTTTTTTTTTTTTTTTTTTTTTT…TC
- reported_conditions: aptamer strand: ATP DNA aptamer (quencher-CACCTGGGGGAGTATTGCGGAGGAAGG + anchor), 100 nM annealed; ATP concentration: 500 uM
Please reply with the value in numeric form only.

[Q] I have this sequence here, GTGGATTGTG , and I need its recorded switch fluorescence ratio.
[A] 0.971

[Q] Entry GTAATTTAGG has what switch fluorescence ratio?
[A] 0.996

[Q] Form field: reported switch fluorescence ratio of AGGAGAGTCA
[A] 0.983

[Q] Look up switch fluorescence ratio: TATAGAAGGG
[A] 1

[Q] Quick one: switch fluorescence ratio of AGCTTCCATG ?
[A] 1.09

[Q] // lookup switch fluorescence ratio for AAGGGGGGAA
[A] 1.06

[Q] Look at this sequence and give its reported switch fluorescence ratio. AATTGCGGTA
[A] 0.982

====

- System: ATP;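 note: ATP exposure 15 min at 22 °C before imaging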
- assay_name: switch fluorescence ratio, 500 uM ATP over buffer (Cy3 cluster intensity, sum of 5 cycles each) (fold (ratio)); higher = stronger signal-on switching upon ATP binding; sequences stand for … in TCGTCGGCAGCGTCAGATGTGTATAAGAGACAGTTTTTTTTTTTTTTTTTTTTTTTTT…TC
- reported_conditions: aptamer strand: ATP DNA aptamer (quencher-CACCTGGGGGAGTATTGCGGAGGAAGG + anchor), 100 nM annealed; ATP concentration: 500 uM
# reported switch fluorescence ratio; entries follow
API doc: respond with a numeric literal and nothing else, no unit.

INSERT INTO results (biopolymer_sequence, measured_metric, numeric_readout) VALUES
  ('CGGCCAACGC', 'switch fluorescence ratio', 1.17),
  ('TGGTGTAAGA', 'switch fluorescence ratio', 1.04);

[Q] Endpoint output: switch fluorescence ratio of TCTTCTGGGA . Value?
[A] 1.03

[Q] Entry AATCGGTGCG : reported switch fluorescence ratio = ?
[A] 0.986

[Q] Query (sequence): TCACAGCCTG ; field requested: switch fluorescence ratio
[A] 0.997

[Q] Which value of switch fluorescence ratio has been reported for CGGGCGTCTC in the records?
[A] 0.996

[Q] Query: switch fluorescence ratio; subject: ACGAAGATTA
[A] 1.03

[Q] // query switch fluorescence ratio value for entry CTGGTTAGGC
[A] 1.01

[Q] What measured switch fluorescence ratio goes with TAAGGGGGAA ?
[A] 1.03

[Q] Would you mind telling me what switch fluorescence ratio value was observed for GATGTTAGTG ?
[A] 1

====

Measured switch fluorescence ratio of individual entries
- Tested on: ATP;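 note: ATP exposure 15 min at 22 °C before imaging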
- assay_name: switch fluorescence ratio, 500 uM ATP over buffer (Cy3 cluster intensity, sum of 5 cycles each) (fold (ratio)); higher = stronger signal-on switching upon ATP binding; sequences stand for … in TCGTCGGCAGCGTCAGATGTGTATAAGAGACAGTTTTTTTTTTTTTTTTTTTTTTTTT…TC
- reported_conditions: aptamer strand: ATP DNA aptamer (quencher-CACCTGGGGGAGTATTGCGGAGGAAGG + anchor), 100 nM annealed; ATP concentration: 500 uM
Answer with a number only.

Examples with answers:
INSERT INTO results (biopolymer_sequence, measured_metric, numeric_readout) VALUES
  ('CAGAAGGTTT', 'switch fluorescence ratio', 1),
  ('GGGTTGGGAT', 'switch fluorescence ratio', 0.995),
  ('ACTGAGGGCG', 'switch fluorescence ratio', 1.02),
  ('CGCTTAGATT', 'switch fluorescence ratio', 0.997),
  ('GTTTAAAAAA', 'switch fluorescence ratio', 1);

[Q] GET /values?readout=switch fluorescence ratio&system=ATP&item= GACATTTTGC;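 note: ATP exposure 15 min at 22 °C before imaging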
[A] 1.05

[Q] Please tell me: switch fluorescence ratio of GGCATTCATT , system ATP?;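 note: ATP exposure 15 min at 22 °C before imaging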
[A] 0.989

[Q] Give ATP switch fluorescence ratio for AGGATATGGA
[A] 0.997

====

- System: ATP;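 note: ATP exposure 15 min at 22 °C before imaging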
- assay_name: switch fluorescence ratio, 500 uM ATP over buffer (Cy3 cluster intensity, sum of 5 cycles each) (fold (ratio)); higher = stronger signal-on switching upon ATP binding; sequences stand for … in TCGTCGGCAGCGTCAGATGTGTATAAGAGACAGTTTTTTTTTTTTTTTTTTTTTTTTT…TC
- reported_conditions: aptamer strand: ATP DNA aptamer (quencher-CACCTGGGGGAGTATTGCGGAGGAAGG + anchor), 100 nM annealed; ATP concentration: 500 uM
Property: switch fluorescence ratio; scope: individual sequences
Reply with just the number.

Solved cases below.
INSERT INTO assay_data (biopolymer_sequence, numeric_readout) VALUES
  ('GAACGATGTT', 0.979),
  ('GGGAAGACCG', 0.992),
  ('AAGTTGGTCT', 1.02),
  ('TGTAAGTAGG', 1.04),
  ('TGGTTTTGC', 1.01);

Please examine the following record next.
[Q] Field request: switch fluorescence ratio | item: GTGAAAAACT
[A] 1.03

====

Reported switch fluorescence ratio values for the following sequences.
- System: ATP;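 note: ATP exposure 15 min at 22 °C before imaging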
- assay_name: switch fluorescence ratio, 500 uM ATP over buffer (Cy3 cluster intensity, sum of 5 cycles each) (fold (ratio)); higher = stronger signal-on switching upon ATP binding; sequences stand for … in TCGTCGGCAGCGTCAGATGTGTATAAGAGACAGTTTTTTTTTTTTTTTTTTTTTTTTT…TC
- reported_conditions: aptamer strand: ATP DNA aptamer (quencher-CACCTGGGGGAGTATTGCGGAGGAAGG + anchor), 100 nM annealed; ATP concentration: 500 uM
Reply: number alone, nothing else.

Here's what some known entries look like.
INSERT INTO results (biopolymer_sequence, measured_metric, numeric_readout) VALUES
  ('TTTACAGTC', 'switch fluorescence ratio', 1.01),
  ('CATGTATGGG', 'switch fluorescence ratio', 0.983),
  ('CACCGAGATT', 'switch fluorescence ratio', 1.07),
  ('ACAATAACAC', 'switch fluorescence ratio', 1.09),
  ('TTAATTTTA', 'switch fluorescence ratio', 1.01),
  ('GGTTTTGCCA', 'switch fluorescence ratio', 0.995);

[Q] Recorded switch fluorescence ratio for CGTTTAAGCG , please?
[A] 1.01
